Data origin, for the record: patent US20010056184A1

# Target Of Assay: Δ MT1-MMP (Δ MMP-14) (Homo sapiens)
# Construct: ProMT1-MMP cDNA encoded extracellular domain of pro Δ MT1-MMP was tranfected E. coli BL21DE3
# Test: Δ MT1-MMP (Δ MMP-14) inhibitory activities, fluorogenic substrate enzyme assay
# Applied Conditions: 37° C., 30 min, substrate 10 μM; read-out: ΔMMP-14 IC50
pIC50: −log10 of the molar value.
Experimental Endpoint: pIC50

Recorded pIC50, per entry:
                                   compound  meas_value
0  CC(=O)N[C@@H]1CCN(S(=O)(=O)c2ccc(-c3ccc(Cl)cc3)cc2)[C@@H](C(=O)NO)C1 [Compound 72]        7.64
1  CC(C)CCC(=O)N[C@@H]1CCN(S(=O)(=O)c2ccc(O)cc2)[C@@H](C(=O)NO)C1 [Compound 63]        7.77
2  CC(C)CCCN[C@@H]1CCN(S(=O)(=O)c2cccs2)[C@@H](C(=O)NO)C1 [Compound 70]        6.42
3  CC(C)CCC(=O)N[C@@H]1CCN(S(=O)(=O)c2cccc(-c3ccc(O)cc3)c2)[C@@H](C(=O)NO)C1 [Compound 53]        5.70
4  COc1ccc(S(=O)(=O)N2CC[C@H](NC(C)=O)C[C@H]2C(=O)NO)cc1 [Compound 81]        7.05

a. O=C(N[C@@H]1CCN(S(=O)(=O)c2ccc(-c3ccc(Cl)cc3)cc2)[C@@H](C(=O)O)C1)c1cccc[n+]1[O-] [Compound 89]
b. COc1ccc(S(=O)(=O)N2CC[C@@H](NC(C)=O)C[C@@H]2C(=O)NO)cc1 [Compound 66]
Enquiry: Sort a and b by pIC50 descending and give the first. // respond with label for picked entry
Return: b
(b: 8.68, a: 5.15)
